# Test system: IL-1β release upon NLRP3 activation in phorbol 12-myristate 13-acetate (PMA)-differentiated THP-1 cells
# experiment.notes: THP-1 IC50 Determination Assay
# Type: cell-based
# condition.description: Homo sapiens, inhibition of IL-1β release, LPS, nigericin, ELISA
Structures can show the parent of a compound that is named as a salt.
// values below are reported IC50

# IC50 lookup, item Cc1cc(Cl)cc(O)c1-c1cc2ncn(C[C@H]3CCCN(C)C3)c2nn1 [Compound 80, hydrochloride] 100 to 300 nM

# IC50 lookup, item Cc1cc(Cl)cc(O)c1-c1cc2ccn(CC3COC3)c2nn1 100 to 300 nM

# IC50 lookup, item Cc1cc(C(F)(F)F)cc(O)c1-c1cc2ccn(CC3CCN(C)CC3)c2nn1 30 to 100 nM

# IC50 lookup, item Cc1cc(Cl)cc(O)c1-c1cc2ccn(CCCN(C)C)c2nn1 [Compound 29, hydrochloride] 1000 to 3000 nM

# IC50 lookup, item Cc1cc(Cl)cc(O)c1-c1cc2ccn(C[C@@H]3CCN(C)C[C@@H]3F)c2nn1 (relative stereo) 100 to 300 nM

New cases:
# IC50 lookup, item Cc1cc(C(F)(F)F)cc(O)c1-c1cc2ccn(CC3CCCO3)c2nn1 (centres unmarked) 100 to 300 nM

# IC50 lookup, item Cc1cc(Cl)cc(O)c1-c1cc2ccn(CC(=O)N3CCCCC3)c2nn1 300 to 1000 nM

# IC50 lookup, item CC(=O)N1CCCC(Cn2ccc3cc(-c4c(C)cc(Cl)cc4O)nnc32)C1 (centres unmarked) 100 to 300 nM

# IC50 lookup, item Cc1cc(Cl)cc(O)c1-c1cc2ccn(CC3CCCOC3)c2nn1 (centres unmarked) 300 to 1000 nM

# IC50 lookup, item Cc1cc(Cl)cc(O)c1-c1cc2ccn(CC3CCN(C)C(=O)C3)c2nn1 (centres unmarked) 100 to 300 nM

# IC50 lookup, item Cc1cc(Cl)cc(O)c1-c1cc2ncn(C[C@H]3CCN(C)C3)c2nn1 [Compound 74, hydrochloride] 30 to 100 nM

# IC50 lookup, item Cc1cc(C(F)(F)F)cc(O)c1-c1cc2ccn(C)c2nn1 300 to 1000 nM

# IC50 lookup, item Cc1cc(Cl)cc(O)c1-c1cc2ccn(CC3CCCO3)c2nn1 (centres unmarked) 100 to 300 nM

----------
// values below are reported IC50
# System: IL-1β release upon NLRP3 activation in phorbol 12-myristate 13-acetate (PMA)-differentiated THP-1 cells
# experiment.notes: THP-1 IC50 Determination Assay
# Format: cell-based
# condition.description: Homo sapiens, inhibition of IL-1β release, LPS, nigericin, ELISA
Where a name gives a salt, the structure may show the parent alone.

Below, 5 molecules whose answers are already recorded.
# IC50 lookup, item Cc1cc(Cl)cc(O)c1-c1cc2ccn(CC3CCC(=O)N(C)C3)c2nn1 (stereo not shown) 100 to 300 nM

# IC50 lookup, item Cc1cc(Cl)cc(O)c1-c1cc2ccn(CC3CCN(CC(F)(F)F)CC3)c2nn1 300 to 1000 nM

# IC50 lookup, item Cc1cc(Cl)cc(O)c1-c1cc2ccn(C[C@@H]3CCN(C)C[C@H]3F)c2nn1 (relative stereo) [Compound 51, hydrochloride] 1000 to 3000 nM

# IC50 lookup, item Cc1cc(Cl)cc(O)c1-c1cc2ccn(CC3CCN(C4COC4)CC3)c2nn1 100 to 300 nM

# IC50 lookup, item Cc1cc(Cl)cc(O)c1-c1cc2ccn(CC3CCCCN3C)c2nn1 (stereo not shown) 100 to 300 nM

New cases:
# IC50 lookup, item Cc1cc(Cl)cc(O)c1-c1cc2ccn(CC(=O)N(C)[C@H]3CCOC3)c2nn1 100 to 300 nM

# IC50 lookup, item Cc1cc(Cl)cc(O)c1-c1cc2ccn(CC3CCN(C)CC3(F)F)c2nn1 (stereo not shown) [Compound 35, hydrochloride] 300 to 1000 nM

# IC50 lookup, item COC(=O)N1CCC(Cn2ccc3cc(-c4c(C)cc(Cl)cc4O)nnc32)CC1 100 to 300 nM

# IC50 lookup, item Cc1cc(Cl)cc(O)c1-c1cc2ccn(CC3CC(=O)N(C)C3)c2nn1 (stereo not shown) 100 to 300 nM

# IC50 lookup, item Cc1cc(Cl)cc(O)c1-c1cc2ccn(CC3COCCN3C)c2nn1 (stereo not shown) [Compound 41, hydrochloride] 300 to 1000 nM

# IC50 lookup, item Cc1cc(Cl)cc(O)c1-c1cc2ccn(CC(=O)N(C)[C@@H]3CCN(C)C3)c2nn1 [Compound 62, hydrochloride] 300 to 1000 nM

# IC50 lookup, item Cc1cc(Cl)cc(O)c1-c1cc2ccn(CC3CCOC3)c2nn1 (stereo not shown) 100 to 300 nM

# IC50 lookup, item Cc1cc(Cl)cc(O)c1-c1cc2ccn(CC3CCCN3C)c2nn1 (stereo not shown) [Compound 39, hydrochloride] 300 to 1000 nM

# IC50 lookup, item Cc1cc(Cl)cc(O)c1-c1cc2ccn(C3CCN(C)CC3)c2nn1 300 to 1000 nM

# IC50 lookup, item Cc1cc(Cl)cc(O)c1-c1cc2ccn(CC(=O)N(C)C)c2nn1 100 to 300 nM

# IC50 lookup, item Cc1cc(Cl)cc(O)c1-c1cc2ccn(CC3CCN(CC#N)CC3)c2nn1 300 to 1000 nM

# IC50 lookup, item Cc1cc(Cl)cc(O)c1-c1cc2ccn(C[C@@H]3CCCCN3C)c2nn1 [Compound 46, hydrochloride] 100 to 300 nM

# IC50 lookup, item Cc1cc(Cl)cc(O)c1-c1cc2ccn(CC3(F)CCN(C)CC3)c2nn1 [Compound 27, hydrochloride] 100 to 300 nM

# IC50 lookup, item Cc1cc(Cl)cc(O)c1-c1cc2ccn(CC3CN(C)CCO3)c2nn1 (stereo not shown) [Compound 34, hydrochloride] 300 to 1000 nM

The reported measurements were obtained from patent US20250206745A1.
